assay: Stability in PBS buffer assessed as parent compound remaining at […] after 72 hrs by HPLC-MS analysis; type: physicochemical; details: read-out: Stability
reported_metric: remaining at 72 h
The reply must contain the numeric value and, after it, the unit.

I have this molecule here, `CC[C@H]1CN2CCc3cc(OC)c(OC)cc3[C@@H]2C[C@@H]1C[C@@H]1c2cc(OC)c(OC)cc2CCN1C(=O)OCc1ccc(NC(=O)[C@H](CC(C)C)NC(=O)[C@@H](N)CO)cc1` , and I need its recorded remaining at 72 h.
100%

---

assay: Stability assessed as parent compound remaining at […] in presence of 10% FBS after 72 hrs by HPLC-MS analysis; type: physicochemical; details: cattle, read-out: Stability
reported_metric: remaining at 72 h (%)
Enter your answer as a number in %; do not include the unit.

I have this compound here, `CC[C@H]1CN2CCc3cc(OC)c(OC)cc3[C@@H]2C[C@@H]1C[C@@H]1c2cc(OC)c(OC)cc2CCN1C(=O)OCc1ccc(NC(=O)[C@H](CC(C)C)NC(=O)[C@@H](N)CO)cc1` , and I need its recorded remaining at 72 h.
100

---

assay: Toxicity in iv dosed Balb/C mouse; format: organism-based; details: in vivo
*1 amine or outer side, *2 acyl side, *3 side chain or, on linkers, in order; H or OH if unused. Where a SMILES comes first, the peptide text is derived from it. [ ]: non-standard residue; d: D form. The star is where a group is joined. Emetine(N2') = CC[C@H]1CN2CCc3cc(OC)c(OC)cc3[C@@H]2C[C@@H]1C[C@@H]1c2cc(OC)c(OC)cc2CCN1*; PABC = O=C(OCc1ccc(N[*:1])cc1)[*:2]
reported_metric: MTD (mg/kg)
Enter your answer as a number in mg/kg; do not include the unit.

compound	data_value
CC[C@H]1CN2CCc3cc(OC)c(OC)cc3[C@@H]2C[C@@H]1C[C@@H]1c2cc(OC)c(OC)cc2CCN1C(=O)OCc1ccc(NC(=O)[C@H](CC(C)C)NC(=O)[C@H](CO)NC(=O)[C@H](CCC(N)=O)NC(=O)[C@H](CC(C)C)NC(=O)[C@H](CCCCN)NC(=O)[C@H](CO)NC(=O)[C@H](CO)NC(=O)[C@H](Cc2cnc[nH]2)NC(C)=O)cc1 (Ac-HSSKLQSL[PABC]-{Emetine(N2')})	25
CC[C@H]1CN2CCc3cc(OC)c(OC)cc3[C@@H]2C[C@@H]1C[C@@H]1c2cc(OC)c(OC)cc2CCN1C(=O)OCc1ccc(NC(=O)[C@@H]2CCCN2C(=O)[C@H](C)N)cc1	32

I have this compound here, `CC[C@H]1CN2CCc3cc(OC)c(OC)cc3[C@@H]2C[C@@H]1C[C@H]1NCCc2cc(OC)c(OC)cc21` , and I need its recorded MTD.
8

---

system: Mus musculus; test: Toxicity in Balb/C mouse assessed as change in behavior at >100 mg/kg, iv; type: organism-based; settings: in vivo
reported_metric: Activity

record_smiles	Activity
CC[C@H]1CN2CCc3cc(OC)c(OC)cc3[C@@H]2C[C@@H]1C[C@@H]1c2cc(OC)c(OC)cc2CCN1C(=S)Nc1ccccc1	Non-Toxic
CC[C@H]1CN2CCc3cc(OC)c(OC)cc3[C@@H]2C[C@@H]1C[C@@H]1c2cc(OC)c(OC)cc2CCN1C(=S)[S-].[Na+]	Non-Toxic
CC[C@H]1CN2CCc3cc(OC)c(OC)cc3[C@@H]2C[C@@H]1C[C@@H]1c2cc(OC)c(OC)cc2CCN1C(=O)OCc1ccc([N+](=O)[O-])cc1	Non-Toxic
CC[C@H]1CN2CCc3cc(OC)c(OC)cc3[C@@H]2C[C@@H]1C[C@@H]1c2cc(OC)c(OC)cc2CCN1C(=O)/C=C(/C)C(=O)O	Non-Toxic
CC[C@H]1CN2CCc3cc(OC)c(OC)cc3[C@@H]2C[C@@H]1C[C@@H]1c2cc(OC)c(OC)cc2CCN1C(=O)/C=C(/CC(=O)O)C(=O)O	Non-Toxic

Now, please, on to the next compound.
I have this compound here, `CC[C@H]1CN2CCc3cc(OC)c(OC)cc3[C@@H]2C[C@@H]1C[C@@H]1c2cc(OC)c(OC)cc2CCN1C(=O)CCC(=O)O` , and I need its recorded Activity.
Non-Toxic

---

Below, each entry is listed with its recorded MTD.
assay: Toxicity in iv dosed Balb/C mouse; assay type: organism-based; details: in vivo
*1 amine or outer side, *2 acyl side, *3 side chain or, on linkers, in order; H or OH if unused. Where a SMILES comes first, the peptide text is derived from it. [ ]: non-standard residue; d: D form. The star is where a group is joined. Emetine(N2') = CC[C@H]1CN2CCc3cc(OC)c(OC)cc3[C@@H]2C[C@@H]1C[C@@H]1c2cc(OC)c(OC)cc2CCN1*; PABC = O=C(OCc1ccc(N[*:1])cc1)[*:2]

# example entries with known answers
molecule	MTD
CC[C@H]1CN2CCc3cc(OC)c(OC)cc3[C@@H]2C[C@@H]1C[C@@H]1c2cc(OC)c(OC)cc2CCN1C(=O)OCc1ccc(NC(=O)[C@H](CC(C)C)NC(=O)[C@@H](N)CO)cc1	50 mg/kg
CC[C@H]1CN2CCc3cc(OC)c(OC)cc3[C@@H]2C[C@@H]1C[C@@H]1c2cc(OC)c(OC)cc2CCN1C(=O)/C=C(/CC(=O)O)C(=O)O	> 100 mg/kg
CC[C@H]1CN2CCc3cc(OC)c(OC)cc3[C@@H]2C[C@@H]1C[C@@H]1c2cc(OC)c(OC)cc2CCN1C(=O)/C=C(/C)C(=O)O	> 100 mg/kg
CC[C@H]1CN2CCc3cc(OC)c(OC)cc3[C@@H]2C[C@@H]1C[C@@H]1c2cc(OC)c(OC)cc2CCN1C(=S)Nc1ccccc1	> 100 mg/kg
CC[C@H]1CN2CCc3cc(OC)c(OC)cc3[C@@H]2C[C@@H]1C[C@@H]1c2cc(OC)c(OC)cc2CCN1C(=O)CCC(=O)O	> 100 mg/kg

I have this molecule here, CC[C@H]1CN2CCc3cc(OC)c(OC)cc3[C@@H]2C[C@@H]1C[C@@H]1c2cc(OC)c(OC)cc2CCN1C(=O)OCc1ccc(NC(=O)[C@@H]2CCCN2C(=O)[C@H](C)NC(=O)[C@@H]2CCCN2C(=O)CNC(=O)[C@H](C)NC(=O)[C@@H]2CCCN2C(=O)CNC(=O)[C@H](CO)NC(=O)[C@H](C)NC(C)=O)cc1 (Ac-ASGPAGPAP[PABC]-{Emetine(N2')}) , and I need its recorded MTD.
25 mg/kg

---

Biological target: Prostate-specific antigen (PSA) (Homo sapiens)
Sequence (P07288 whole entry): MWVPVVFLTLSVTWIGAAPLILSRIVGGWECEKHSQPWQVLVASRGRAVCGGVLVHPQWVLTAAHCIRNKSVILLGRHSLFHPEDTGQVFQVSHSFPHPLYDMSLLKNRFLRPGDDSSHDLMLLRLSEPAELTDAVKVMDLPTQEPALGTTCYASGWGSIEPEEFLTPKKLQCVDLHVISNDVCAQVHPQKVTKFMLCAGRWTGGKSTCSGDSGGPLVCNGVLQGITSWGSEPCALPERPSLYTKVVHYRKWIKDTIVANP
Assay: Stability in PBS buffer assessed as human PSA mediated compound metabolism by measuring parent compound remaining at […] after 72 hrs by HPLC-MS analysis
Type: ADME
Details: read-out: Stability
reported_metric: remaining at 72 h

I have this compound here, `CC[C@H]1CN2CCc3cc(OC)c(OC)cc3[C@@H]2C[C@@H]1C[C@@H]1c2cc(OC)c(OC)cc2CCN1C(=O)OCc1ccc(NC(=O)[C@H](CC(C)C)NC(=O)[C@@H](N)CO)cc1` , and I need its recorded remaining at 72 h.
100%
